These measurements were taken from ChEMBL document CHEMBL3988442.

- target_entity: Sialic acid-binding Ig-like lectin 9 (Homo sapiens) (UniProt Q9Y336)
- Sequence (Q9Y336 whole entry): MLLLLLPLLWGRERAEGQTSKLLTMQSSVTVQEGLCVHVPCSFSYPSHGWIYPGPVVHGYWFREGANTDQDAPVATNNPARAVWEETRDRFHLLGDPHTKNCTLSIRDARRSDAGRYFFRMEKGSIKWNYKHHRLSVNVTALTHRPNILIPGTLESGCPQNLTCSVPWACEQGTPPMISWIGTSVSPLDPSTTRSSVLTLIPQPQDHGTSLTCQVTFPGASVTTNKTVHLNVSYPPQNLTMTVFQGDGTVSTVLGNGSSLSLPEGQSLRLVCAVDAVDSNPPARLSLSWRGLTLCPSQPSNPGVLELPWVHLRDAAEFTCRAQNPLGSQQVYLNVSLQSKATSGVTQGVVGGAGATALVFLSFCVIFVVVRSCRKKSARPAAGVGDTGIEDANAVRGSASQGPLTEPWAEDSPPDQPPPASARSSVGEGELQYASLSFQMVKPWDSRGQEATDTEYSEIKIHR
- protocol_summary: Hs-Siglec9 ALPHAscreen SOP 20170721
- Set-up: scale not given: direction of the effect not stated beside the values
- condition_set: 10 µM

| compound | target_entity | value_unit | Percent Effect |
| --- | --- | --- | --- |
| COCc1nc(C(=O)N2CCCC2c2c(C)nn(C)c2C)cs1 (stereo unspecified) | Sialic acid-binding Ig-like lectin 9 (Homo sapiens) (UniProt Q9Y336) | % | 1.97 |
| COc1ccc(CS(=O)(=O)CC(=O)NCC2CC2)cc1F | Sialic acid-binding Ig-like lectin 9 (Homo sapiens) (UniProt Q9Y336) | % | -2.71 |
| CCCNC(=O)NC(=O)CN(CC(C)O)c1ccccc1 (stereo unspecified) | Sialic acid-binding Ig-like lectin 9 (Homo sapiens) (UniProt Q9Y336) | % | -6.45 |
| COCCN(Cc1nc2c(cnn2C)c(=O)[nH]1)Cc1ccco1 | Sialic acid-binding Ig-like lectin 9 (Homo sapiens) (UniProt Q9Y336) | % | -3.6 |
| O=C1CC2(CCN(S(=O)(=O)C3CC3)C2)CN1c1cncnc1 (stereo unspecified) | Sialic acid-binding Ig-like lectin 9 (Homo sapiens) (UniProt Q9Y336) | % | -1.59 |
| Cc1ccc(C(=O)N2CCC3(CC2)NC(=O)CC3c2ccccc2)cn1 (stereo unspecified) | Sialic acid-binding Ig-like lectin 9 (Homo sapiens) (UniProt Q9Y336) | % | 7.94 |
